Tested on: A549
METHOD_DESCRIPTION: Antiproliferative activity against human A549 cells assessed as inhibition of cell growth incubated for 48 hrs by MTT reagent based microplate reader assay
Format: functional
CONDITION_SET: A549, 48 h
VALUE_KIND: IC50 (µM)
Give bare numbers, in µM.

For the compound `CCCCCCCC/C=C\CCCCCCCC(=O)Oc1cccc2c1C(=O)C=C(C)C2=O` , what IC50 is on record? 15.4

###

Tested on: MCF7
METHOD_DESCRIPTION: Antiproliferative activity against human MCF7 cells assessed as inhibition of cell growth incubated for 48 hrs by MTT reagent based spectrophotometric analysis
Assay type: functional
CONDITION_SET: MCF7, 48 h
VALUE_KIND: pIC50
Numbers only, as −log10 of the molar value.

What measured pIC50 is associated with `O=C1C(Cl)=C(NNc2nnc3n2N=C(c2ccc(Cl)cc2)CS3)C(=O)c2ccccc21` on MCF7? 5.07
